Cited source: ChEMBL document CHEMBL1150023

Species: Rattus norvegicus
Test: Effect on the uptake amount of [3H]choline in the hippocampal synaptosomes of AF64A-treated rats at 10e-6 M
Assay type: functional, organism-based
Conditions: Hippocampus
Would you mind telling me the reported HACU improvement of each entry?
State the result as a value with its unit after it.

Consider the following illustrative entries.
CCCC(=O)Nc1c2c(nc3scc(C)c13)CCCC2	3%
CCCC(=O)Nc1c2c(nc3ccccc13)CCN(Cc1ccccc1)C2	11%
CCCC(=O)Nc1c2c(nc3ccccc13)CCC(C)C2 (configuration not stated)	-16%

Each compound below has a reported value. Please supply its HACU improvement.
1. Cc1oc2nc3c(c(NC(=O)CN4CC(=O)NC4=O)c2c1C)CCCC3
2. CCCC(=O)Nc1c2c(nc3cccc(C)c13)CCCC2
3. CCCC(=O)Nc1c2c(nc3ccccc13)CCC(=O)C2
4. CCCC(=O)Nc1c2c(nc3ccccc13)C=CCC2
5. CCCC(=O)Nc1c2c(nc3ccccc13)CCCC2
6. CCCC(=O)Nc1c2c(nc3ccccc13)CCC(C)(C)C2
7. CCCC(=O)Nc1c2c(nc3ccc(F)cc13)CCCC2

1: 12%; 2: -4%; 3: 14%; 4: 8%; 5: 24%; 6: 3%; 7: -5%

List the reported HACU improvement of each compound below.
1. CCCC(=O)Nc1c2c(nc3ccccc13)C(C)CCC2 (configuration not stated)
2. CCCC(=O)Nc1c2c(nc3oc(C)nc13)CCCC2

1. 17%
2. 2%
